assay protocol: Solubility of rasagiline salts in water measured using Crystal16 (Avantium Technologies)
readout kind: solubility

[ask] Hello, please tell me recorded solubility for this one: C#CCN[C@@H]1CCc2ccccc21 [L-tartrate, Rasagiline L-tartrate, reference compound]
[reply] < 30 mg/mL
